# experimental_target: Complement component 3 (C3) (Homo sapiens) (UniProt P01024+P01024)
# Sequence (P01024 23-667, chain 1 of 2): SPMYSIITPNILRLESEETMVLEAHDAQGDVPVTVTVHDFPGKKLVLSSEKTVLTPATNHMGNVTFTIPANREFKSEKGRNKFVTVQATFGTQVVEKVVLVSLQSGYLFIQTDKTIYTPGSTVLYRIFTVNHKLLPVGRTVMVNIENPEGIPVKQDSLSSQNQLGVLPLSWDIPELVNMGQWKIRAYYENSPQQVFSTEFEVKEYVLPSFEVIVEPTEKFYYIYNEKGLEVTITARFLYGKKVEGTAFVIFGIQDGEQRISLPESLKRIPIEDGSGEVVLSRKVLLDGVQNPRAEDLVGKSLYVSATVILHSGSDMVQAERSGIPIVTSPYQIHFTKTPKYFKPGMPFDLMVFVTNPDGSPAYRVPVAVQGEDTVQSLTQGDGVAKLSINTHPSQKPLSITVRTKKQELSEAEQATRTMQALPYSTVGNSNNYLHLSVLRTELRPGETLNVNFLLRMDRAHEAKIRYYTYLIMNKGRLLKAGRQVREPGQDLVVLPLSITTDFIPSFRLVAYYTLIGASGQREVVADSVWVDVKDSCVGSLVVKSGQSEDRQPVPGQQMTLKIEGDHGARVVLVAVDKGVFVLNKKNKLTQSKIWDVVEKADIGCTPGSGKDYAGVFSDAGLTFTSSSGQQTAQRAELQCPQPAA
# Sequence (P01024 672-1663, chain 2 of 2): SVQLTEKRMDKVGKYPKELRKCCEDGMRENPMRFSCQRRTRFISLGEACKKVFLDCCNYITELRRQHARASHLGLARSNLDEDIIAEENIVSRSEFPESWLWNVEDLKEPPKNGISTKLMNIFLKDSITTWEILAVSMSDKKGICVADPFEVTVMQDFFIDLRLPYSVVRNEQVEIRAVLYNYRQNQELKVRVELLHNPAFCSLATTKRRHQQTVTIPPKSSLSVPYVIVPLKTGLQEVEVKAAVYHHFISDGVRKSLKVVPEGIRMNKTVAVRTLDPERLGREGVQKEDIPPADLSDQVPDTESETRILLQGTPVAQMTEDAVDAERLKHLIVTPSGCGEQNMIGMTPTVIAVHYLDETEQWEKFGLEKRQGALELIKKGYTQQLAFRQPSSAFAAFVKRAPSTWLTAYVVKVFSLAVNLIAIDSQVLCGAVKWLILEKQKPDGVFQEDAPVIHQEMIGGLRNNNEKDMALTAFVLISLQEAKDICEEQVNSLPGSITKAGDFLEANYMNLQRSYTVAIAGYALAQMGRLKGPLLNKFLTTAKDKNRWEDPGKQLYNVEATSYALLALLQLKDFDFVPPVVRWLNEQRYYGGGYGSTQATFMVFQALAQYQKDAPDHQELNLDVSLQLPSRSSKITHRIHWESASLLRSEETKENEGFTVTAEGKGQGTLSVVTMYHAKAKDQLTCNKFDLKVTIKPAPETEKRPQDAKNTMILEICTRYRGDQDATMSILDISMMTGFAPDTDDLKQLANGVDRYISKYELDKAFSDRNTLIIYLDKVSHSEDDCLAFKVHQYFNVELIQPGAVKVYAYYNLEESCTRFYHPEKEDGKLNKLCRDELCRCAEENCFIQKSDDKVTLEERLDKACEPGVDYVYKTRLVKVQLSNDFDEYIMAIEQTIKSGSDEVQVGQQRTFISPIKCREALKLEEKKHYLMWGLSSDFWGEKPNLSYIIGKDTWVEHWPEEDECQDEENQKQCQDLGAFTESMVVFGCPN
# assay_details: filter
# run_parameters: all U = NapdU; C3-spacer replaces C27; 3'-3' idT; SB18T0.01, 37C
endpoint: Kd (nM)
The reply should contain only the number, in nM.

Recorded result, CCGGUGACUCAAUAGUCCGUACGUUCCGG [8491-94_49] , Kd: 0.266

* * *

# experimental_target: Complement component 3 (C3) (Homo sapiens) (UniProt P01024+P01024)
# assay_details: filter
# run_parameters: all P = NapdU, T1 = dT; 2'-OMe at 2,3,5,7,9,10,13,19,20,22-28; 3'-3' idT; SB18T0.01, 37C
endpoint: Kd (pM)
Give the number; pM is assumed, so skip it.

Kd reading for TGGUGACUCAAUAGUCCGUACGUUCCCA [8491-94_128] : 38

Value source: patent US20170166895
